Listed compounds paired with reported pEC50
- experimental.system: delta opioid receptor (Mus musculus, UniProt P32300)
- Construct: NG108-15 cell membranes were purchased from Applied Cell Sciences (Rockville, Md.); host or cells: NG108-15 cell membranes
- Sequence (P32300 whole entry): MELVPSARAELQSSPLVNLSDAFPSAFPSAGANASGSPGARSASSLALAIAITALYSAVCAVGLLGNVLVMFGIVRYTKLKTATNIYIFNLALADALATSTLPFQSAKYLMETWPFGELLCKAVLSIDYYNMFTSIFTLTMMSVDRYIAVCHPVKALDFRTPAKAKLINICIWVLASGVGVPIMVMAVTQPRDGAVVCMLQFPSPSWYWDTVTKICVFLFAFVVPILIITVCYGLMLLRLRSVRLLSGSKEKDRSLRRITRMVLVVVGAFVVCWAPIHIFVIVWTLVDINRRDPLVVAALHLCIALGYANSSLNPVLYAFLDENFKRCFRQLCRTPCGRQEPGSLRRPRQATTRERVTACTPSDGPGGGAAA
- assay.comment: [35S]GTPγS binding assay in NG108-15 cell membranes (delta opioid functional assay), 200 nM screen
- Type: biochemical
- condition.description: NG108-15 cell membranes; averages if tested more than once; read-out: GTPγS δ-opioid receptor EC50
pEC50: −log10 of the molar value.
observed.property: pEC50

INSERT INTO assay_data (compound, observed_property, reported) VALUES
  ('O=C(Nc1ccc(Oc2nc(-c3cccnc3)ncc2NC[C@@H]2CCCN2)cc1)C1CC1 [Cpd 138]', 'pEC50', 5.87),
  ('COc1cccc(Oc2nc(-c3cncnc3)ncc2NC[C@@H]2CCCN2)c1 [Cpd 99]', 'pEC50', 6.03),
  ('N#Cc1cncc(-c2ncc(NC[C@@H]3CCCN3)c(Oc3ccc(CO)cc3)n2)c1 [Cpd 143]', 'pEC50', 6.16);

----------
- experimental.system: delta opioid receptor (Mus musculus, UniProt P32300)
- Construct: NG108-15 cell membranes were purchased from Applied Cell Sciences (Rockville, Md.); host or cells: NG108-15 cell membranes
- assay.comment: [35S]GTPγS binding assay in NG108-15 cell membranes (delta opioid functional assay), 200 nM screen
- Assay type: biochemical
- condition.description: 200 nM test compound; relative to calculated max of SNC80 dose response curve; NG108-15 cell membranes; averages if tested more than once
observed.property: GTPγS δ-RelEfficacy @200 nM

INSERT INTO results (compound, observed_property, reported) VALUES
  ('O=C(Nc1cccc(Oc2nc(-c3cccnc3)ncc2NC[C@@H]2CCCN2)c1)OCc1ccccc1 [Cpd 188]', 'GTPγS δ-RelEfficacy @200 nM', 0.779),
  ('O=C(Nc1ccc(Oc2nc(-c3cncc(F)c3)ncc2NC[C@@H]2CCCN2)cc1)OCc1ccccc1 [Cpd 197]', 'GTPγS δ-RelEfficacy @200 nM', 0.411),
  ('Cc1ccc(Oc2nc(-c3cncnc3)ncc2NC[C@@H]2CCCN2)cc1 [Cpd 148]', 'GTPγS δ-RelEfficacy @200 nM', 0.411),
  ('CCc1ccc(Oc2nc(-c3cncc(F)c3)ncc2NC[C@@H]2CCCN2)cc1 [Cpd 182]', 'GTPγS δ-RelEfficacy @200 nM', 0.470),
  ('COc1ccc(Oc2nc(-c3cncc(F)c3)ncc2NC[C@@H]2CCCN2)cc1C [Cpd 205]', 'GTPγS δ-RelEfficacy @200 nM', 0.609),
  ('COc1ccc(Oc2nc(-c3cccnc3)ncc2NC2CCCC(N)C2)cc1 (stereo not shown) [Cpd 306]', 'GTPγS δ-RelEfficacy @200 nM', 0.910),
  ('COc1ccc(Oc2nc(-c3cncc(C#N)c3)ncc2N2CCC[C@@H](N)C2)cc1 [Cpd 330]', 'GTPγS δ-RelEfficacy @200 nM', 0.547);

----------
- experimental.system: delta opioid receptor (Mus musculus, UniProt P32300)
- Construct: NG108-15 cell membranes were purchased from Applied Cell Sciences (Rockville, Md.); host or cells: NG108-15 cell membranes
- assay.comment: [35S]GTPγS binding assay in NG108-15 cell membranes (delta opioid functional assay), 200 nM screen
- Format: biochemical
- condition.description: relative efficacy from dose response; NG108-15 cell membranes
observed.property: GTPγS δ-opioid receptor Rel Efficacy

INSERT INTO measurements (compound, experimental_system, reported) VALUES
  ('COc1ccc(Oc2nc(-c3ccccc3)ncc2NC[C@@H]2CCCN2)cc1', 'delta opioid receptor (Mus musculus, UniProt P32300)', 0.733),
  ('N#Cc1cncc(-c2ncc(NC[C@@H]3CCCN3)c(Oc3ccc(C(F)(F)F)cc3)n2)c1', 'delta opioid receptor (Mus musculus, UniProt P32300)', 0.890),
  ('COc1ccc(Oc2nc(-c3cncc(C#N)c3)ncc2NC[C@H]2COCCN2)cc1', 'delta opioid receptor (Mus musculus, UniProt P32300)', 0.998),
  ('COc1ccc(Oc2nc(-c3cncc(SC)c3)ncc2NC2CCCC(N)C2)cc1 (racemic) [Cpd 310]', 'delta opioid receptor (Mus musculus, UniProt P32300)', 1.042);

----------
- experimental.system: delta opioid receptor (Mus musculus, UniProt P32300)
- Construct: NG108-15 cell membranes were purchased from Applied Cell Sciences (Rockville, Md.); host or cells: NG108-15 cell membranes
- assay.comment: [35S]GTPγS binding assay in NG108-15 cell membranes (delta opioid functional assay), 200 nM screen
- Type: biochemical
- condition.description: 200 nM test compound; relative to calculated max of SNC80 dose response curve; NG108-15 cell membranes; averages if tested more than once
observed.property: GTPγS δ-RelEfficacy @200 nM

INSERT INTO measurements (structure_notation, reported) VALUES
  ('CCc1ccc(Oc2nc(-c3cccnc3)ncc2NC[C@@H]2CCCN2)cc1', 0.497),
  ('Cc1ccc(Oc2nc(-c3cccnc3)ncc2NC[C@@H]2CCCN2)cc1F', 0.497),
  ('Cc1ccc(Oc2nc(-c3cncc(F)c3)ncc2NC[C@@H]2CCCN2)cc1', 0.578),
  ('COc1ccc(Oc2nc(-c3cncc(F)c3)ncc2NC[C@@H]2CCCN2)cc1F', 0.819),
  ('COc1ccc(Oc2nc(-c3cncc(C#N)c3)ncc2N2CCNCC2)cc1', 0.866),
  ('COc1ccc(Oc2nc(-c3cncc(F)c3)ncc2NC[C@@H]2C[C@@H](F)CN2)cc1', 0.801),
  ('Cc1ccc(Oc2nc(-c3cccnc3)ncc2NC[C@@H]2CCCN2)cc1', 0.403),
  ('COCc1ccc(Oc2nc(-c3cncc(C#N)c3)ncc2NC[C@@H]2CCCN2)cc1', 0.454),
  ('Cc1ccc(Oc2nc(-c3cccnc3)ncc2NC[C@@H]2CCCN2)c(F)c1F', 0.135);

----------
- experimental.system: delta opioid receptor (Mus musculus, UniProt P32300)
- Construct: NG108-15 cell membranes were purchased from Applied Cell Sciences (Rockville, Md.); host or cells: NG108-15 cell membranes
- assay.comment: [35S]GTPγS binding assay in NG108-15 cell membranes (delta opioid functional assay), 200 nM screen
- Type: biochemical
- condition.description: GTPγS δ-opioid receptor EC50 (μM), NG108-15 cell membranes; averages if tested more than once
Response field label takes satisfied when EC50 is strictly below 0.04 µM and not satisfied in all other cases.

INSERT INTO results (molecule, label_class) VALUES
  ('COc1ccc(Oc2nc(-c3ccc(OC)c(F)c3)ncc2NC[C@@H]2CCCN2)cc1 [Cpd 64]', 'not satisfied'),
  ('COc1ccc(Oc2nc(-c3cccnc3)ncc2NC[C@@H]2C[C@@H](F)CN2)cc1 [Cpd 196]', 'not satisfied'),
  ('COc1ccc(Oc2nc(-c3cncc(C)c3)ncc2NC[C@@H]2C[C@@H](F)CN2)cc1 [Cpd 238]', 'satisfied'),
  ('COc1ccc(Oc2nc(-c3cccnc3)ncc2N2CCNC[C@@H]2C)cc1 [Cpd 354]', 'satisfied'),
  ('COc1ccc(Oc2nc(-c3cncc(SC)c3)ncc2N[C@@H]2CCC[C@H](N)C2)cc1 [Cpd 317]', 'not satisfied'),
  ('Cc1ccc(Oc2nc(-c3cncc(C#N)c3)ncc2NC[C@@H]2CCCN2)cc1 [Cpd 147]', 'not satisfied'),
  ('COc1ccc(Oc2nc(-c3cncc(C#N)c3)ncc2NC[C@@H]2CCCN2)cc1F [Cpd 132]', 'satisfied'),
  ('COc1ccc(Oc2nc(-c3cncc(SC)c3)ncc2N2CCNC(C)(C)C2)cc1 [Cpd 350]', 'not satisfied'),
  ('CSc1cncc(-c2ncc(NC[C@@H]3CCCN3)c(Oc3cccc(OC(C)=O)c3)n2)c1 [Cpd 248]', 'not satisfied'),
  ('CCCOc1ccc(Oc2nc(-c3cncc(C#N)c3)ncc2NC[C@@H]2CCCN2)cc1 [Cpd 113]', 'not satisfied'),
  ('COc1ccc(Oc2nc(-c3cncc(OC)c3)ncc2N[C@H]2CCCNC2)cc1 [Cpd 245]', 'satisfied'),
  ('COc1ccc(Oc2nc(-c3cncc(C)c3)ncc2NC2CCCC(N)C2)cc1 (centres unmarked) [Cpd 315]', 'not satisfied'),
  ('COc1ccc(Oc2nc(-c3cncc(SC)c3)ncc2N[C@@H]2CCCNC2)cc1 [Cpd 254]', 'not satisfied'),
  ('COc1ccc(Oc2nc(-c3cncc(Cl)c3)ncc2NC[C@@H]2CCCN2)cc1C [Cpd 210]', 'not satisfied'),
  ('COc1ccc(Oc2nc(-c3cncc(Cl)c3)ncc2NC[C@@H]2C[C@@H](F)CN2)cc1 [Cpd 194]', 'satisfied'),
  ('COc1ccc(Oc2nc(-c3cncc(OC)c3)ncc2N[C@H]2CCNC2)cc1 [Cpd 256]', 'satisfied'),
  ('COc1ccc(Oc2nc(-c3cncc(OC)c3)ncc2NC[C@H]2C[C@@H](O)CN2)cc1 [Cpd 274]', 'not satisfied'),
  ('COc1ccc(Oc2nc(-c3cncc(CO)c3)ncc2NC[C@@H]2CCCN2)cc1 [Cpd 269]', 'not satisfied'),
  ('COc1ccc(Oc2nc(-c3cncc(C#N)c3)ncc2N2CCNC(C)C2)cc1 (racemic) [Cpd 343]', 'satisfied'),
  ('CC(=O)Oc1cccc(Oc2nc(-c3cncc(C#N)c3)ncc2NC[C@@H]2CCCN2)c1 [Cpd 228]', 'satisfied');
